List of pKd values.
testedOn: T1, mouse serum albumin (mouse, UniProt P07724 25-608)
T1 construct: Bought protein, immobilized on a CM5 chip by amine coupling; also called Mouse SA
testName: SPR (Biacore 8K), albumin immobilized on CM5 chip, 25 C, 1:1 kinetic fit
Procedure: The immobilization of the serum albumin to a Series S Sensor Chip CM5 surface is performed according to the manufacturer's instructions (Amine Coupling Kit BR-1000-50). Briefly, carboxyl groups on the sensor chip surfaces (flow cell 1 and 2) are activated by injecting 70 μL of a mixture containing 75 mg/mL EDC and 11.5 mg/mL NHS at 10 μL/min. […]
pKd: −log10 of the molar value.
recordedEndpoint: pKd

>>> quantitativeresult("RLN Analog 11 (other, Single-chain fusion: VHH - (G4Q)5 L1 - RLN2 B chain (desB1) - L2 of thirteen residues - RLN2 A chain (desA1-4)) EVQLLESGGGLVQPGGSLRLSCAASGRYIDETAVAWFRQAPGKEREFVAGIGGGVDITYYADSVKGRFTISRDNSKNTLYLQMNSLRPEDTAVYYCAARPGRPLITSKVADLYPYWGQGTLVTVSSGGGGQGGGGQGGGGQGGGGQGGGGQSWMEEVIKLCGRELVRAQIAICGMSTWSGGGSGGSGGSGGGALANKCCHVGCTKRSLARFC")
8.44
>>> quantitativeresult("RLN Analog 14 (other, Single-chain fusion: VHH - (PGPQ)8 L1 - RLN2 A chain (desA1-4) - L2 - RLN2 B chain (desB1)) EVQLLESGGGLVQPGGSLRLSCAASGRYIDETAVAWFRQAPGKGREFVAGIGGGVDITYYADSVKGRFTISRDNSKNTLYLQMNSLRPEDTAVYYCAARPGRPLITSKVADLYPYWGQGTLVTVSSPGPQPGPQPGPQPGPQPGPQPGPQPGPQPGPQALANKCCHVGCTKRSLARFCGGGSGGSGGGSWMEEVIKLCGRELVRAQIAICGMSTWS")
8.51
>>> quantitativeresult("RLN Analog 3 (other, Single-chain fusion: VHH - (G4Q)5 L1 - RLN2 B chain (desB1) - L2 - RLN2 A chain) EVQLLESGGGLVQPGGSLRLSCAASGRYIDETAVAWFRQAPGKEREFVAGIGGGVDITYYADSVKGRFTISRDNSKNTLYLQMNSLRPEDTAVYYCAARPGRPLITSKVADLYPYWGQGTLVTVSSGGGGQGGGGQGGGGQGGGGQGGGGQSWMEEVIKLCGRELVRAQIAICGMSTWSGGGSGGSGGGQLYSALANKCCHVGCTKRSLARFC")
8.62
